Reported Binding of serum 1b to linear peptides of protein X5 of SARS-CoV Urbani values follow for various sequences
system: antibodies in sera from SARS patients (sera 1a, 1b, 2, 6, 37, 62, London, SARS-yellow, SARS-green); assay type: binding, human
PROPERTY LABEL: Binding of serum 1b to linear peptides of protein X5 of SARS-CoV Urbani

INSERT INTO assay_data (polymer_sequence, obs_value) VALUES
  ('LCALGKVLPFHRWHT', 0.6),
  ('LKILVRYNTRGNTYS', 0.6),
  ('NTYSTAWLCALGKVL', 0.4),
  ('HRWHTMVQTCTPNVT', 0.6),
  ('MCLKILVRYNTRGNT', 0.6);
